The reported measurements were obtained from PubChem BioAssay (NCI).

Experiment: NCI Yeast Anticancer Drug Screen. Data for the rad50 strain (AID 155);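 also: 0% = growth of vehicle-only cultures of the same strain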
Settings: S. cerevisiae rad50 strain growth inhibition; at 50.0 µM; stronger effect = higher value
Compounds without any hit were thinned out: in the full panel of roughly 79,000, 15% have a hit.
test.readout: growth inhibition (%)
Value expressed in %; do not type the unit.

Please review the following examples before continuing.
molecule | test.readout | readout.number
CCOc1ccc(N2C(=O)C3C4c5ccccc5C(c5ccccc54)C3C2=O)cc1 (centres undefined) | growth inhibition | 27
Cc1cc2nn(C3CCCO3)nc2cc1C (centres undefined) | growth inhibition | -10.6

Request: Report growth inhibition, nothing else, for this molecule: CC(=O)C(C(C)=O)c1ccccc1
Response: -5.15

Request: Tell me growth inhibition reported for N#CC(=S)Nc1ccc(F)cc1
Response: 20.2
